# System: SW620 human metastatic colon cancer cells
# run.description: MTT assay, SW620 cells
# Assay type: cell-based
# experimental.context: SW-620, 72 h, read-out: IC50 SW620
recorded.metric: IC50 (µM)
Unit µM implied. Number only.

Exercise: Reported IC50, molecule CC[C@@H](C(=O)[C@@H](C)[C@@H](O)[C@H](C)[C@@H]1O[C@@H]([C@@H](CC)C(=O)O)CC[C@@H]1C)[C@H]1O[C@]2(C=C[C@@H](O)[C@]3(CC[C@@](C)([C@H]4CC[C@](O)(CC)[C@H](C)O4)O3)O2)[C@H](C)C[C@@H]1C [SAL, Salinomycin, reference compound] : ____
Solution: 1.5

Exercise: // IC50 lookup, key: CCC1(C2OC(C3OC(O)(CNC(=O)CCC[P+](c4ccccc4)(c4ccccc4)c4ccccc4)C(C)CC3C)CC2C)CCC(C2(C)CCC3(CC(O)C(C)C(C(C)C(OC)C(C)C(=O)O)O3)O2)O1 (stereo not shown)
Solution: 28.1

Exercise: Fill blank: measured IC50 of the molecule CCC1(C2OC(C3OC(O)(Cn4cc(C[P+](c5ccccc5)(c5ccccc5)c5ccccc5)nn4)C(C)CC3C)CC2C)CCC(C2(C)CCC3(CC(O)C(C)C(C(C)C(OC)C(C)C(=O)O)O3)O2)O1 (stereo not shown) is ____.
Solution: 0.7

Exercise: Can you look up the measured IC50 of CC[C@@H](C(=O)[C@@H](C)[C@@H](O)[C@H](C)[C@@H]1O[C@@H]([C@@H](CC)C(=O)O)CC[C@@H]1C)[C@H]1O[C@]2(C=C[C@H](n3cc(C[P+](c4ccccc4)(c4ccccc4)c4ccccc4)nn3)[C@]3(CC[C@@](C)([C@H]4CC[C@](O)(CC)[C@H](C)O4)O3)O2)[C@H](C)C[C@@H]1C for me?
Solution: 16.4

###

# Tested on: SW620 human metastatic colon cancer cells
# run.description: MTT assay, SW620 cells
# Type: cell-based
# experimental.context: SW-620, 72 h, read-out: IC50 SW620
recorded.metric: IC50 (nM)
Give the number; nM is assumed, so skip it.

Exercise: // query IC50 value for entry CCCC[P+](CCCC)(CCCC)Cc1cn([C@H]2C=C[C@]3(O[C@H]([C@@H](CC)C(=O)[C@@H](C)[C@@H](O)[C@H](C)[C@@H]4O[C@@H]([C@@H](CC)C(=O)O)CC[C@@H]4C)[C@@H](C)C[C@H]3C)O[C@@]23CC[C@@](C)([C@H]2CC[C@](O)(CC)[C@H](C)O2)O3)nn1
Solution: 1800

Exercise: Report IC50 for CCC1(C2OC(C3OC(O)(Cn4cc(COC(=O)CCC[P+](c5ccccc5)(c5ccccc5)c5ccccc5)nn4)C(C)CC3C)CC2C)CCC(C2(C)CCC3(CC(O)C(C)C(C(C)C(OC)C(C)C(=O)O)O3)O2)O1 (centres unmarked) please.
Solution: 1500
